Value source: ChEMBL document CHEMBL3046907

test system: Salmonella typhi; assay: Antibacterial activity against Salmonella enterica subsp. enterica serovar Typhi MTCC 98 after overnight incubation by broth microdilution method; type: functional
Under this convention, TRUE denotes MIC99 strictly below 200 µg/mL and FALSE denotes MIC99 at or above 200 µg/mL.

* O=C(O)c1cn(C2CC2)c2cc(N3CCNCC3)c(F)cc2c1=O [CIPROFLOXACIN] | TRUE
* COc1ccc2nc(Oc3ccc(C)cc3)c(-c3c(C#N)c(N)n4c(nc5cc(C)ccc54)c3C#N)cc2c1 | TRUE
* Cc1ccc2nc(Oc3ccccc3)c(-c3c(C#N)c(N)n4c(nc5cc(C)ccc54)c3C#N)cc2c1 | FALSE
* Cc1ccc(Oc2nc3ccc(C)cc3cc2-c2c(C#N)c(N)n3c(nc4ccccc43)c2C#N)cc1 | TRUE
* COc1ccc(Oc2nc3ccc(C)cc3cc2-c2c(C#N)c(N)n3c(nc4cc(C)ccc43)c2C#N)cc1 | FALSE
* Cc1ccc(Oc2nc3ccccc3cc2-c2c(C#N)c(N)n3c(nc4ccccc43)c2C#N)cc1 | TRUE

---

test system: Salmonella typhi; test: Antibacterial activity against Salmonella enterica subsp. enterica serovar Typhi MTCC 98 after overnight incubation by broth microdilution method; assay type: functional
readoutLabel: MIC99 (µg/mL)

• COc1ccc2nc(Oc3ccccc3)c(-c3c(C#N)c(N)n4c(nc5ccccc54)c3C#N)cc2c1 = 200
• Cc1ccc2c(c1)nc1c(C#N)c(-c3cc4ccccc4nc3Oc3ccccc3)c(C#N)c(N)n12 = 200
• Cc1ccc(Oc2nc3ccccc3cc2-c2c(C#N)c(N)n3c(nc4cc(C)ccc43)c2C#N)cc1 = 200
